# Tested on: Sorghum bicolor
# EXPERIMENT NOTES: Phytotoxic activity against Sorghum bicolor seedlings assessed as germination at 5x10'-4 mol/l at 28 +/-1 degC after 48 hr by acid-washed sand based radicle elongation assay (reference value: 100%)
# Assay type: functional
ENDPOINT NAME: germination % at 500 µM (%)
Kindly provide the numeric value in % only, without the unit symbol.

C[C@@]12C=C[C@](C)(O1)[C@H]1CCCC[C@H]2C1=O	100
CCC12OC(C3OOC1O3)C1CCCCC2C1=O (mixture of isomers)	100
CC1CCC23OOC(C)(O2)C2OC3(C1)C(C)C(=O)C2C (mixture of isomers)	96
O=C1C2CCCCC1C1OC2C2OOC1O2	96
CC[C@@]12C=C[C@H](O1)[C@H]1CCCC[C@H]2C1=O	100

Okay, now this compound:
Challenge: Quote Sorghum bicolor germination % at 500 µM for entry CC1=C[C@@H]2O[C@]1(C)[C@H]1CCCC[C@H]2C1=O .
Response given: 79

---

# Tested on: Sorghum bicolor
# EXPERIMENT NOTES: Phytotoxic activity against Sorghum bicolor assessed as aerial part growth inhibition at 5.0 x 10^-4 mol/l measured 15 days after seed sowing under greenhouse trials (reference value: 0.0%)
# Format: functional
# CONDITION DESCRIPTION: 360 h
A collection of compounds and their measured inhibition at 500 µM
Kindly provide the numeric value in % only, without the unit symbol.

Some compounds with known inhibition at 500 µM results, for comparison:
CCC1C(=O)C(CC)C23CC(C)CCC24OOC(C)(O4)C1O3 (mixture of isomers)	39.6
CC1=C[C@@H]2O[C@]1(C)[C@H]1CCCC[C@H]2C1=O	47.4

Challenge: // Input: CC[C@@]12C=C[C@H](O1)[C@H]1CCCC[C@H]2C1=O . Output its inhibition at 500 µM only.
Response given: 48.8

Challenge: // Input: CC12OC(C)(C3OOC1O3)C1CCCCC2C1=O (mixture of isomers) . Output its inhibition at 500 µM only.
Response given: 53.9

Challenge: // Input: O=C1C2CCCCC1C1OC2C2OOC1O2 . Output its inhibition at 500 µM only.
Response given: 45.1

---

A collection of compounds and their measured Activity
# Tested on: Sorghum bicolor
# EXPERIMENT NOTES: Phytotoxic activity against Sorghum bicolor seedlings assessed as radicle length at 5x10'-4 mol/l at 28 +/-1 degC after 48 hr by acid-washed sand based radicle elongation assay (reference value: 5.1 cm)
# Assay type: functional
Kindly provide the numeric value in cm only, without the unit symbol.

CCC1C(=O)C(CC)C23CC(C)CCC24OOC(C)(O4)C1O3 (mixture of isomers)	2.3
C[C@@]12C=C[C@](C)(O1)[C@H]1CCCC[C@H]2C1=O	0.9
CC(=O)[C@@]12C=C[C@H](O1)[C@H]1CCCC[C@H]2C1=O	0.6

Challenge: // Input: C[C@@]12C=C[C@H](O1)[C@H]1CCCC[C@H]2C1=O . Output its Activity only.
Response given: 2.1

Challenge: // Input: CC1CCC23OOC(C)(O2)C2OC3(C1)C(C)C(=O)C2C (mixture of isomers) . Output its Activity only.
Response given: 1.4

Challenge: // Input: CCC12OC(C3OOC1O3)C1CCCCC2C1=O (mixture of isomers) . Output its Activity only.
Response given: 2.4

Challenge: // Input: CC1=C[C@@H]2O[C@]1(C)[C@H]1CCCC[C@H]2C1=O . Output its Activity only.
Response given: 0.9

Challenge: // Input: O=C1C2CCCCC1C1OC2C2OOC1O2 . Output its Activity only.
Response given: 2.1

Challenge: // Input: CC[C@@H]1C(=O)[C@@H](CC)[C@@]23CC(C)CCC2=C(C)[C@H]1O3 (some centres undefined) . Output its Activity only.
Response given: 1.7

---

A collection of compounds and their measured inhibition at 500 µM
# Tested on: Cucumis sativus
# EXPERIMENT NOTES: Phytotoxic activity against Cucumis sativus (cucumber) assessed as root growth inhibition at 5.0 x 10^-4 mol/l measured 15 days after seed sowing under greenhouse trials (reference value: 0.0%)
# Type: functional
# CONDITION DESCRIPTION: 360 h
Kindly provide the numeric value in % only, without the unit symbol.

Challenge: // Input: CC1=C[C@@H]2O[C@]1(C)[C@H]1CCCC[C@H]2C1=O . Output its inhibition at 500 µM only.
Response given: 62.1

Challenge: // Input: CC[C@@]12C=C[C@H](O1)[C@H]1CCCC[C@H]2C1=O . Output its inhibition at 500 µM only.
Response given: 49.2

Challenge: // Input: CCC12OC(C3OOC1O3)C1CCCCC2C1=O (mixture of isomers) . Output its inhibition at 500 µM only.
Response given: 75.2

---

# Tested on: Sorghum bicolor
# EXPERIMENT NOTES: Phytotoxic activity against Sorghum bicolor assessed as aerial part growth inhibition at 5.0 x 10^-4 mol/l measured 15 days after seed sowing under greenhouse trials (reference value: 0.0%)
# Type: functional
# CONDITION DESCRIPTION: 360 h
A collection of molecules and their measured inhibition at 500 µM
The reply must contain the numeric value and, after it, the unit.

Challenge: // Input: CC12OC(C3OOC1O3)C1CCCCC2C1=O (mixture of isomers) . Output its inhibition at 500 µM only.
Response given: 20%

Challenge: // Input: CC[C@@H]1C(=O)[C@@H](CC)[C@@]23CC(C)CCC2=C(C)[C@H]1O3 (some centres undefined) . Output its inhibition at 500 µM only.
Response given: 28.1%

Challenge: // Input: CC1CCC23OOC(C)(O2)C2OC3(C1)C(C)C(=O)C2C (mixture of isomers) . Output its inhibition at 500 µM only.
Response given: 6.8%

Challenge: // Input: CC12OOC(O1)C1OC2(C)C2CCCCC1C2=O (mixture of isomers) . Output its inhibition at 500 µM only.
Response given: 41.8%
